- tgt: HCV polymerase H544 1b 3X (Hepatitis C virus genotype 1b, UniProt P26663)
- Construct: a region encoding NS5B (J Virol 1991 March, 65(3), 1105-13, 544 amino acids after deletion of 47 amino acids on the C-terminal); 6 His (C); made in house; host or cells: Escherichia coli
- Sequence (P26663 2420-2963): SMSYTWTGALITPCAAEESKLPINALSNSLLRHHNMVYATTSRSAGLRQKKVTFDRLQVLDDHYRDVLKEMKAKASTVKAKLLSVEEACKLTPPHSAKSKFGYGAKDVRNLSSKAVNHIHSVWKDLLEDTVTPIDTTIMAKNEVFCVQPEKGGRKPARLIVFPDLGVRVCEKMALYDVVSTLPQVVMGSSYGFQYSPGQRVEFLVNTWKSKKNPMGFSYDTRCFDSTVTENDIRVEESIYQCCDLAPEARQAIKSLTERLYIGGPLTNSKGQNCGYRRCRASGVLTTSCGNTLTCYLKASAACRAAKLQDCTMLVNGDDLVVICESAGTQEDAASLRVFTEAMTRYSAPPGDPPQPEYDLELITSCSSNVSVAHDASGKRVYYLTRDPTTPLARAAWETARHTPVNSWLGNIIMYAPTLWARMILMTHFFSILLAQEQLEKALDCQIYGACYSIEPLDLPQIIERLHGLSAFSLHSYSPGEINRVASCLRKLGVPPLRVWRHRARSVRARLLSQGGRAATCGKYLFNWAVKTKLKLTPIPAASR
- assay.notes: Assay of enzyme (HCV polymerase) inhibitory activity, H544 1b 3X
- Format: biochemical, HCV BK strain
pIC50: −log10 of the molar value. Structures can show the parent of a compound that is named as a salt.
measured.metric: pIC50

What value of pIC50 has been reported for the following molecule? CN(C)CCn1c(-c2ccc(OCc3cc(S(C)(=O)=O)ccc3N3CCOCC3)cc2)c(C2CCCCC2)c2sc(C(=O)O)cc21 [Example 56, dihydrochloride]
> 7.00

Also, O=C(O)c1cc2c(s1)c(C1CCCCC1)c(-c1ccc(OCc3ccccc3)cc1)n2CCN1CCN(C2CCCCC2)CC1 [Example 53, dihydrochloride] please.
6.00 to 7.00

Also, "CN(C)C(=O)Cn1c(-c2ccc(Oc3ccccc3)cc2)c(C2CCCCC2)c2sc(C(=O)O)cc21" please.
> 7.00

Also, "CCN1CCN(C(=O)Cn2c(-c3ccc(OC)cc3)c(C3CCCCC3)c3sc(C(=O)O)cc32)CC1" please.
> 7.00

Also, CN(CCN1CCCCC1)CCn1c(-c2ccc(OCc3ccccc3)cc2)c(C2CCCCC2)c2sc(C(=O)O)cc21 [Example 59, dihydrochloride] please.
> 7.00

Also, Cn1c(-c2ccc(OCc3cc(N)ccc3N3CCN(S(C)(=O)=O)CC3)cc2)c(C2CCCCC2)c2sc(C(=O)O)cc21 [Example 19, hydrochloride] please.
> 7.00

###

- tgt: HCV polymerase H544 1b 3X (Hepatitis C virus genotype 1b)
- Construct: a region encoding NS5B (J Virol 1991 March, 65(3), 1105-13, 544 amino acids after deletion of 47 amino acids on the C-terminal); 6 His (C); made in house; host or cells: Escherichia coli
- assay.notes: Assay of enzyme (HCV polymerase) inhibitory activity, H544 1b 3X
- Assay type: biochemical, HCV BK strain
Structures can show the parent of a compound that is named as a salt.
measured.metric: IC50

What value of IC50 has been reported for the following compound? "CN(C)C(=O)Cn1c(-c2ccccc2OCc2ccccc2)c(C2CCCCC2)c2sc(C(=O)O)cc21"
100 to 1000 nM

Also, CC(C)C(=O)N(C)c1ccc(N2CCOCC2)c(COc2ccc(-c3c(C4CCCCC4)c4sc(C(=O)O)cc4n3C)cc2)c1 [Example 30, hydrochloride] please.
< 100 nM

Also, "Cn1c(-c2ccccc2OCc2ccccc2)c(C2CCCCC2)c2sc(C(=O)O)cc21" please.
100 to 1000 nM

Also, CC(=O)N(C)c1ccc(N2CCOCC2)c(COc2ccc(-c3c(C4CCCCC4)c4sc(C(=O)O)cc4n3C)cc2)c1 [Example 17, hydrochloride] please.
< 100 nM

Also, "COc1ccc(-c2c(C3CCCCC3)c3sc(C(=O)O)cc3n2CC(=O)N2CCOCC2)cc1" please.
< 100 nM

Also, "CN(C)C(=O)Cn1c(-c2ccc(OC3CCN(C(=O)OC(C)(C)C)CC3)cc2)c(C2CCCCC2)c2sc(C(=O)O)cc21" please.
< 100 nM

Also, CN(C)C(=O)Cn1c(-c2ccc(OC3CCCN(C(=O)OC(C)(C)C)C3)cc2)c(C2CCCCC2)c2sc(C(=O)O)cc21 (centres unmarked) please.
< 100 nM

Also, "Cn1c(-c2ccc(OCc3ccccc3)cc2)c(C2CCCCC2)c2sc(C(=O)O)cc21" please.
100 to 1000 nM

Also, CCOC(=O)c1cc2c(s1)c(C1CCCCC1)c(-c1ccc(OCc3cc(N4CCCC4=O)ccc3N3CCOCC3)cc1)n2C [Example 24, hydrochloride] please.
100 to 1000 nM

Also, O=C(O)c1cc2c(s1)c(C1CCCCC1)c(-c1ccc(OCc3ccccc3)cc1)n2CCN1CCC(N2CCCCC2)CC1 [Example 55, dihydrochloride] please.
100 to 1000 nM

Also, "CN(C)CCn1c(-c2ccc(OCc3ccccc3)cc2)c(C2CCCCC2)c2sc(C(=O)O)cc21" please.
100 to 1000 nM

Also, CC(=O)N(C)c1ccc(N2CCN(S(C)(=O)=O)CC2)c(COc2ccc(-c3c(C4CCCCC4)c4sc(C(=O)O)cc4n3C)cc2)c1 [Example 20, hydrochloride] please.
< 100 nM

Also, "COc1ccc(-c2c(C3CCCCC3)c3sc(C(=O)O)cc3n2CC(=O)NC(C)(C)C)cc1" please.
100 to 1000 nM

Also, "COc1ccc(-c2c(C3CCCCC3)c3sc(C(=O)O)cc3n2CC(=O)N(C)C)cc1" please.
< 100 nM

###

- tgt: HCV polymerase H544 1a 3X (UniProt P27958)
- Construct: fused on or other part: 6 His tag at the C-terminus, for the BK (1b) enzyme
- assay.notes: Assay of enzyme (HCV polymerase) inhibitory activity, H544 1a 3X
- Format: biochemical
- measurement.conditions: 25° C., 90 min, [5,6-3H]UTP incorporation, read-out: H544 1a 3X IC50
Where a name gives a salt, the structure may show the parent alone.
Exercise: for every item that follows, state its recorded IC50.

Value wanted: IC50 (HCV polymerase H544 1a 3X (UniProt P27958)) of entry O=C(O)c1cc2c(s1)c(C1CCCCC1)c(-c1ccc(OCc3ccccc3)cc1)n2CC1CCCCC1 [Example 48]
100 to 1000 nM

Also, CN(C)CCn1c(-c2ccc(OCc3ccccc3)cc2)c(C2CCCCC2)c2sc(C(=O)O)cc21 [Example 46] please.
100 to 1000 nM

Also, CN(C)C(=O)Cn1c(-c2ccc(OCc3ccccc3N3CCOCC3)cc2)c(C2CCCCC2)c2sc(C(=O)O)cc21 [Example 38] please.
< 100 nM

Also, Cn1c(-c2ccc(OCc3cc(N4CCCC4=O)ccc3N3CCN(S(C)(=O)=O)CC3)cc2)c(C2CCCCC2)c2sc(C(=O)O)cc21 [Example 18, hydrochloride] please.
< 100 nM

Also, O=C(O)c1cc2nc(-c3ccc(OCc4cc(N5CCCC5=O)ccc4N4CCOCC4)cc3)n(C3CCCCC3)c2s1 [Example 5] please.
100 to 1000 nM

Also, Cn1c(-c2ccc(OCc3ccccc3)cc2)c(C2CCCCC2)c2sc(C(=O)O)cc21 [Example 12] please.
100 to 1000 nM

Also, CC(C)C(=O)N(C)c1ccc(N2CCOCC2)c(COc2ccc(-c3c(C4CCCCC4)c4sc(C(=O)O)cc4n3C)cc2)c1 [Example 30, hydrochloride] please.
< 100 nM

Also, CCN1CCN(C(=O)Cn2c(-c3ccc(OC)cc3)c(C3CCCCC3)c3sc(C(=O)O)cc32)CC1 [Example 26] please.
100 to 1000 nM

Hey, just so you know, these numbers are from patent US20090036444A1.
